- experimental_details: activity coefficient (dimensionless); of the first substance listed, at infinite dilution; xn = mol fraction of the nth substance listed
- experimental_conditions: 308.15 K; 100 kPa; Liquid; Chromatography; x1 = 0
measurement_kind: activity coefficient

• Cc1ccc(C)cc1 [1,4-dimethylbenzene] + CCCC[n+]1ccc(C#N)cc1.O=S(=O)([N-]S(=O)(=O)C(F)(F)F)C(F)(F)F = 2.15
• CCC(=O)OC [methyl propanoate] + CCCC[n+]1ccc(C#N)cc1.O=S(=O)([N-]S(=O)(=O)C(F)(F)F)C(F)(F)F = 0.8
• CCOC(C)=O [ethyl acetate] + CCCC[n+]1ccc(C#N)cc1.O=S(=O)([N-]S(=O)(=O)C(F)(F)F)C(F)(F)F = 0.839
• CCCCCO [pentan-1-ol] + CCCC[n+]1ccc(C#N)cc1.O=S(=O)([N-]S(=O)(=O)C(F)(F)F)C(F)(F)F = 3.84
• CC#N [acetonitrile] + CCCC[n+]1ccc(C#N)cc1.O=S(=O)([N-]S(=O)(=O)C(F)(F)F)C(F)(F)F = 0.432
• COC(C)(C)C [2-methoxy-2-methylpropane] + CCCC[n+]1ccc(C#N)cc1.O=S(=O)([N-]S(=O)(=O)C(F)(F)F)C(F)(F)F = 3.01
• C#CCCC [1-pentyne] + CCCC[n+]1ccc(C#N)cc1.O=S(=O)([N-]S(=O)(=O)C(F)(F)F)C(F)(F)F = 3.4
• CCC(C)(C)C [2,2-dimethylbutane] + CCCC[n+]1ccc(C#N)cc1.O=S(=O)([N-]S(=O)(=O)C(F)(F)F)C(F)(F)F = 34.9
• CCCOCCC [dipropyl ether] + CCCC[n+]1ccc(C#N)cc1.O=S(=O)([N-]S(=O)(=O)C(F)(F)F)C(F)(F)F = 8.88
• CCC(C)(C)OC [2-methoxy-2-methylbutane] + CCCC[n+]1ccc(C#N)cc1.O=S(=O)([N-]S(=O)(=O)C(F)(F)F)C(F)(F)F = 4.33
• CCC(=O)CC [pentan-3-one] + CCCC[n+]1ccc(C#N)cc1.O=S(=O)([N-]S(=O)(=O)C(F)(F)F)C(F)(F)F = 0.697
• CCCCO [butan-1-ol] + CCCC[n+]1ccc(C#N)cc1.O=S(=O)([N-]S(=O)(=O)C(F)(F)F)C(F)(F)F = 3.19
• CCCCCCCC [octane] + CCCC[n+]1ccc(C#N)cc1.O=S(=O)([N-]S(=O)(=O)C(F)(F)F)C(F)(F)F = 65
• CCCCCC [hexane] + CCCC[n+]1ccc(C#N)cc1.O=S(=O)([N-]S(=O)(=O)C(F)(F)F)C(F)(F)F = 33
• Cc1cccc(C)c1 [1,3-dimethylbenzene] + CCCC[n+]1ccc(C#N)cc1.O=S(=O)([N-]S(=O)(=O)C(F)(F)F)C(F)(F)F = 2.13
• C1CCOC1 [tetrahydrofuran] + CCCC[n+]1ccc(C#N)cc1.O=S(=O)([N-]S(=O)(=O)C(F)(F)F)C(F)(F)F = 0.622
• C1CCCC1 [cyclopentane] + CCCC[n+]1ccc(C#N)cc1.O=S(=O)([N-]S(=O)(=O)C(F)(F)F)C(F)(F)F = 12.7
• Cc1ccccc1 [toluene] + CCCC[n+]1ccc(C#N)cc1.O=S(=O)([N-]S(=O)(=O)C(F)(F)F)C(F)(F)F = 1.46
• C=CCCC [1-pentene] + CCCC[n+]1ccc(C#N)cc1.O=S(=O)([N-]S(=O)(=O)C(F)(F)F)C(F)(F)F = 11.5
• CO [methanol] + CCCC[n+]1ccc(C#N)cc1.O=S(=O)([N-]S(=O)(=O)C(F)(F)F)C(F)(F)F = 1.33
• CC1CCCCC1 [methylcyclohexane] + CCCC[n+]1ccc(C#N)cc1.O=S(=O)([N-]S(=O)(=O)C(F)(F)F)C(F)(F)F = 23.4
• O [water] + CCCC[n+]1ccc(C#N)cc1.O=S(=O)([N-]S(=O)(=O)C(F)(F)F)C(F)(F)F = 3.31
• CCCO [propan-1-ol] + CCCC[n+]1ccc(C#N)cc1.O=S(=O)([N-]S(=O)(=O)C(F)(F)F)C(F)(F)F = 2.38
• CCC[N+](=O)[O-] [1-nitropropane] + CCCC[n+]1ccc(C#N)cc1.O=S(=O)([N-]S(=O)(=O)C(F)(F)F)C(F)(F)F = 0.74
• C=CCCCCCCCC [1-decene] + CCCC[n+]1ccc(C#N)cc1.O=S(=O)([N-]S(=O)(=O)C(F)(F)F)C(F)(F)F = 59.4
• C=CCCCCCC [oct-1-ene] + CCCC[n+]1ccc(C#N)cc1.O=S(=O)([N-]S(=O)(=O)C(F)(F)F)C(F)(F)F = 31.7
• CCC(C)CC [3-methylpentane] + CCCC[n+]1ccc(C#N)cc1.O=S(=O)([N-]S(=O)(=O)C(F)(F)F)C(F)(F)F = 30.7
• CCc1ccccc1 [ethylbenzene] + CCCC[n+]1ccc(C#N)cc1.O=S(=O)([N-]S(=O)(=O)C(F)(F)F)C(F)(F)F = 2.49

Data credit: the NIST ThermoML archive (doi:10.1016/j.jct.2016.01.017)
